Hello, the source for this data is ChEMBL document CHEMBL1125378, in case you need it.

Listing of recorded tR by entry.
experiment: Retention time was determined; assay type: ADME
VALUE_KIND: tR (min)

INSERT INTO assay_data (compound, value_kind, endpoint_result) VALUES
  ('NCCCCNCCCN [SPERMIDINE]', 'tR', 33.9),
  ('CC(N)CCNCCCCN (stereo not given)', 'tR', 34.5),
  ('CC(N)CCNCCCCNCCC(C)N (stereo not given)', 'tR', 40.9),
  ('NCCCNCCCCNCCCN [SPERMINE]', 'tR', 40),
  ('CC(N)CCNCCCCNCCCN (stereo not given)', 'tR', 40.5);
